Please respond with reported IC50 for every item in the list.
- Target Or System: human RORγt (Homo sapiens)
- Sequence (P51449 1-497 isoform P51449-2): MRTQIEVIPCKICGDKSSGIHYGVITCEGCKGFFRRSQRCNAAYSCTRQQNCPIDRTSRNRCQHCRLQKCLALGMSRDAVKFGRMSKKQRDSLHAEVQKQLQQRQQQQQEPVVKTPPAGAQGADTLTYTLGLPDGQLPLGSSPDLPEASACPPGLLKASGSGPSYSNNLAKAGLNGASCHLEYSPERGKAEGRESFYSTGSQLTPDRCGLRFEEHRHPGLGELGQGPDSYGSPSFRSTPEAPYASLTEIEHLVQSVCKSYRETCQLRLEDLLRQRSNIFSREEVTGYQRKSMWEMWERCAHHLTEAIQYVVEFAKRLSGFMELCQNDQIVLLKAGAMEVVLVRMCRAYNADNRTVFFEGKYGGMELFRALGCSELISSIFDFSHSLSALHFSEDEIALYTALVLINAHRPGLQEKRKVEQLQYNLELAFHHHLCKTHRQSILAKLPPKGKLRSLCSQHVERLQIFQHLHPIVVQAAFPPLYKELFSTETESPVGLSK
- Assay Details: IL-17 secretion from EL4 murine lymphoma overexpressing human RORγt
- Format: cell-based
- Design: expressed in transfected cells; host or cells: EL-4 murine lymphoma
- Stated Conditions: IL-17 secretion inhibition, PMA and ionomycin stimulation, 24 h

Entry CCOc1ccc(C(NC(=O)Cc2ccc3[nH]cc(CCC(=O)O)c3c2)c2ccccc2)c(N2CCCCC2)c1 (stereo not drawn) [compound 150] , IC50 reported as 1000 to 10000 nM

Entry Cc1ccc(C(NC(=O)Cc2ccc3[nH]cc(CCC(=O)OC(C)(C)C)c3c2)c2ccccc2)c(OC(C)C)c1 (stereo not drawn) [Cpd. 145] , IC50 reported as 1000 to 10000 nM

Entry O=C(O)CCc1c[nH]c2ccc(CC(=O)NC(c3ccccc3)c3ccccc3N3CCCCC3)cc12 (stereo not drawn) [Cpd. 1] , IC50 reported as 1000 to 10000 nM

Entry CC(C)CC(NC(=O)Cc1ccc2[nH]cc(CCC(=O)O)c2c1)c1ccccc1N1CCCCC1 (stereo not drawn) [Cpd. 29] , IC50 reported as 1000 to 10000 nM

Entry COc1ccc(C(NC(=O)Cc2ccc3[nH]cc(CCC(=O)OC(C)(C)C)c3c2)c2ccccc2)c(N2CCCCC2)c1 (stereo not drawn) [Cpd. 110] , IC50 reported as 1000 to 10000 nM

Entry Cc1ccc(C(NC(=O)Cc2ccc3[nH]cc(CCC(=O)OC(C)(C)C)c3c2)c2ccccc2)c(N2CCCCC2)c1 (stereo not drawn) [Cpd. 76] , IC50 reported as 1000 to 10000 nM

Entry COC(=O)Cc1c[nH]c2ccc(CC(=O)NC(c3ccccc3)c3ccc(C)cc3N3CCOCC3)cc12 (stereo not drawn) [Cpd. 96] , IC50 reported as 1000 to 10000 nM

Entry O=C(O)CCc1c[nH]c2ccc(CC(=O)NC(c3cccc(F)c3)c3ccccc3N3CCCCC3)cc12 (stereo not drawn) [Cpd. 3] , IC50 reported as 1000 to 10000 nM

Entry Cc1ccc(C(NC(=O)Cc2ccc3[nH]cc(CCC(=O)O)c3c2)c2ccccc2)c(N2CCCC2)c1 (stereo not drawn) [Cpd. 5] , IC50 reported as < 1000 nM
